- assay-system: human NaPi-IIb (Homo sapiens, UniProt O95436)
- Construct: expressed in transfected cells
- procedure-details: Inhibitory effect on 33PO4 uptake into human NaPi-IIb-expressing CHO cells
- Type: cell-based
- settings: read-out: IC50
pIC50: −log10 of the molar value.
Criterion: pIC50 meeting or surpassing 5. Met: 1.0. Not met: 0.0.

molecule: COc1cccc(-c2cc(C(F)(F)F)ccc2NC(=O)C2=C(O)[C@@]3(C)CCCN3N(Cc3cccc(F)c3F)C2=O)n1 [Example 93]
group-label: 0.0
--
molecule: C[C@]12CCCN1N(Cc1cccc(Cl)c1)C(=O)C(C(=O)Nc1ccc(C(F)(F)F)cc1-c1ccc(C(F)(F)F)nc1)=C2O [Example 169]
group-label: 1.0
--
molecule: COCCOc1cc(NC(=O)C2=C(O)[C@@]3(C)CCCN3N(Cc3cccc(F)c3F)C2=O)c(-c2cccc(OC)c2OC)cc1C(F)(F)F [Example 92]
group-label: 0.0
--
molecule: C[C@]12CCCN1N(Cc1cccc(F)c1F)C(=O)C(C(=O)Nc1ccc(C(F)(F)F)cc1-c1cnc(C#N)nc1)=C2O [Example 95]
group-label: 1.0
--
molecule: C[C@]12CCCN1N(Cc1ccc(C#CCN3CCCC3=O)c(F)c1F)C(=O)C(C(=O)Nc1ccc(Br)c(F)c1)=C2O [Example 131]
group-label: 0.0
--
molecule: C[C@]12CCCN1N(Cc1cccc(F)c1F)C(=O)C(C(=O)Nc1ccc(Br)cc1-c1cc(C(F)(F)F)ncn1)=C2O [Example 64]
group-label: 1.0
--
molecule: CCCCCN1C(=O)C(C(=O)Nc2ccc(C(F)(F)F)cc2-c2ccc(C(F)(F)F)nc2)=C(O)[C@@]2(C)CCCN12 [Example 26]
group-label: 1.0
--
molecule: C[C@]12CCCN1N(Cc1cccc(F)c1F)C(=O)C(C(=O)Nc1ccc(C(F)(F)F)cc1-c1ccc(C(F)(F)F)nc1)=C2O [Example 90]
group-label: 1.0
--
molecule: C[C@]12CCCN1N(Cc1cccc(F)c1F)C(=O)C(C(=O)Nc1cc(Br)c(Br)cc1F)=C2O [Example 33]
group-label: 1.0

---

- assay-system: human NaPi-IIb (Homo sapiens)
- Construct: expressed in transfected cells
- Sequence (O95436 1-690): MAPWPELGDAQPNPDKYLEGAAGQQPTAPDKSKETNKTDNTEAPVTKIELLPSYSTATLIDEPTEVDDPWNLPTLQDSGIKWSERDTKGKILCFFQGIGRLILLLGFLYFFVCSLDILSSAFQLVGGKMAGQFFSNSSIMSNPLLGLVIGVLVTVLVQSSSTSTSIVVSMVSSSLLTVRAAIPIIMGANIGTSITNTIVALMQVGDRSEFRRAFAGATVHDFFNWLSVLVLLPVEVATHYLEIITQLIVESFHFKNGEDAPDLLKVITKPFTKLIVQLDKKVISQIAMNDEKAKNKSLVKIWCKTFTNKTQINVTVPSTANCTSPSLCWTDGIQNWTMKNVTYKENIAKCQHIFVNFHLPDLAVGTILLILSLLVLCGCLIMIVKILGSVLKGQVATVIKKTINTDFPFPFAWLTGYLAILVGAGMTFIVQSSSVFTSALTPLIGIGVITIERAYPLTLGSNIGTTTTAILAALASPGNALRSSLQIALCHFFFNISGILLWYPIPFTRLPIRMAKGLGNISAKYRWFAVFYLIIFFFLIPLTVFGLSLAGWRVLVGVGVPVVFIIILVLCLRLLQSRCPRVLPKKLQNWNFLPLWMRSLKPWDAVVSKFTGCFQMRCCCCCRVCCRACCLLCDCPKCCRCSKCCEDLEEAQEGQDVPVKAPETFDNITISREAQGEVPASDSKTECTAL
- procedure-details: Inhibitory effect on 33PO4 uptake into human NaPi-IIb-expressing CHO cells
- Format: cell-based
- settings: read-out: IC50 against 33PO4 uptake into human NaPi-IIb-expressing cells
pIC50: −log10 of the molar value.
Criterion: pIC50 meeting or surpassing 5. Met: Fulfilled. Not met: Not fulfilled.

structure-smiles-string: CN(CCOc1ccc(CN2C(=O)C(C(=O)Nc3ccc(C(F)(F)F)cc3-c3cc(C(F)(F)F)ncn3)=C(O)C3(CCCC3)N2C)c(F)c1F)C1COC1
group-label: Not fulfilled

structure-smiles-string: CN1N(Cc2ccc(OCCN3CCN(CCOCCO)CC3)c(F)c2F)C(=O)C(C(=O)Nc2ccc(C(F)(F)F)cc2-c2cc(C(F)(F)F)ncn2)=C(O)C12CCCC2
group-label: Not fulfilled

structure-smiles-string: COC[C@@H]1CCCN1CCOc1ccc(CN2C(=O)C(C(=O)Nc3ccc(C(F)(F)F)cc3-c3cc(C(F)(F)F)ncn3)=C(O)C3(CCCC3)N2C)c(F)c1F
group-label: Not fulfilled

structure-smiles-string: CN1N(Cc2ccc(OCCCCCOC[C@H](O)CO)c(F)c2F)C(=O)C(C(=O)Nc2ccc(C(F)(F)F)cc2-c2cc(C(F)(F)F)ncn2)=C(O)C12CCCC2
group-label: Fulfilled

---

Reported IC50 by item:
- assay-system: human NaPi-IIb (Homo sapiens)
- Construct: expressed in transfected cells
- procedure-details: Inhibitory effect on 33PO4 uptake into human NaPi-IIb-expressing CHO cells
- Assay type: cell-based
- settings: read-out: IC50 against 33PO4 uptake into human NaPi-IIb-expressing cells
outcome-measure: IC50 (µM)

molecule: COC(C)(C)CN(C)CCOc1ccc(CN2C(=O)C(C(=O)Nc3ccc(C(F)(F)F)cc3-c3cc(C(F)(F)F)ncn3)=C(O)C3(CCC3)N2C)c(F)c1F [Example 350]
readout-value: 16.9
//
molecule: CN1N(Cc2ccc(OCCN3CCOCC3(C)C)c(F)c2F)C(=O)C(C(=O)Nc2ccc(C(F)(F)F)cc2-c2cc(C(F)(F)F)ncn2)=C(O)C12CCCC2 [Example 371]
readout-value: 8.5
//
molecule: COCCN1CC(Oc2ccc(CN3C(=O)C(C(=O)Nc4ccc(C(F)(F)F)cc4-c4cc(C(F)(F)F)ncn4)=C(O)C4(CCC4)N3C)c(F)c2F)C1 [Example 406]
readout-value: 23.1
//
molecule: CN1N(Cc2ccc(OCCCCCOCCO)c(F)c2F)C(=O)C(C(=O)Nc2ccc(C(F)(F)F)cc2-c2cc(C(F)(F)F)ncn2)=C(O)C12CCCC2 [Example 397]
readout-value: 8.6
//
molecule: CN(CCOc1ccc(CN2C(=O)C(C(=O)Nc3ccc(C(F)(F)F)cc3-c3cc(C(F)(F)F)ncn3)=C(O)C3(CCCC3)N2C)c(F)c1F)C1CCOCC1 [Example 365]
readout-value: 12.2
//
molecule: CN1N(Cc2ccc(OCCCOC[C@H](O)CO)c(F)c2F)C(=O)C(C(=O)Nc2ccc(C(F)(F)F)cc2-c2ccc(C(F)(F)F)nc2)=C(O)C12CCC2 [Example 383]
readout-value: 20.9
//
molecule: CN1N(Cc2ccc(OCCN3[C@@H]4COC[C@H]3C4)c(F)c2F)C(=O)C(C(=O)Nc2ccc(C(F)(F)F)cc2-c2cc(C(F)(F)F)ncn2)=C(O)C12CCCC2 [Example 380]
readout-value: 20.2
//
molecule: CN1N(Cc2ccc(NCCCN3CCOCC3)c(F)c2F)C(=O)C(C(=O)Nc2ccc(C(F)(F)F)cc2-c2cc(C(F)(F)F)ncn2)=C(O)C12CCCC2 [Example 446]
readout-value: 11.1
//
molecule: CN1N(Cc2ccc(NCCN3CCOCC3)c(F)c2F)C(=O)C(C(=O)Nc2ccc(C(F)(F)F)cc2-c2cc(C(F)(F)F)ncn2)=C(O)C12CCCC2 [Example 447]
readout-value: 15.8
//
molecule: CN1N(Cc2ccc(OCCn3cncn3)c(F)c2F)C(=O)C(C(=O)Nc2ccc(C(F)(F)F)cc2-c2cc(C(F)(F)F)ncn2)=C(O)C12CCC2 [Example 352]
readout-value: 16.7
//
molecule: CCCN(CCN(C)CCOC)c1ccc(CN2C(=O)C(C(=O)Nc3ccc(C(F)(F)F)cc3-c3cc(C(F)(F)F)ncn3)=C(O)C3(CCCC3)N2C)c(F)c1F [Example 444]
readout-value: 7.4
//
molecule: CN1N(Cc2ccc(OCCN3CCC(N4CCOCC4)CC3)c(F)c2F)C(=O)C(C(=O)Nc2ccc(C(F)(F)F)cc2-c2cc(C(F)(F)F)ncn2)=C(O)C12CCCC2 [Example 374]
readout-value: 16.4
//
molecule: CN1N(Cc2ccc(OCCN3CC(F)(F)C3)c(F)c2F)C(=O)C(C(=O)Nc2ccc(C(F)(F)F)cc2-c2cc(C(F)(F)F)ncn2)=C(O)C12CCCC2 [Example 369]
readout-value: 21.8
//
molecule: COCCN(C)CCOCCOCCOc1ccc(CN2C(=O)C(C(=O)Nc3ccc(C(F)(F)F)cc3-c3cc(C(F)(F)F)ncn3)=C(O)C3(CCCC3)N2C)c(F)c1F [Example 430]
readout-value: 4.6
//
molecule: CN1CCN(CCOc2ccc(CN3C(=O)C(C(=O)Nc4ccc(C(F)(F)F)cc4-c4cc(C(F)(F)F)ncn4)=C(O)C4(CCC4)N3C)c(F)c2F)CC1=O [Example 359]
readout-value: 18.4
//
molecule: CN1N(Cc2ccc(OCCOCCNC(=O)[C@@H](O)[C@H](O)[C@@H](O)[C@@H](O)CO)c(F)c2F)C(=O)C(C(=O)Nc2ccc(C(F)(F)F)cc2-c2cc(C(F)(F)F)ncn2)=C(O)C12CCCC2 [Example 427]
readout-value: 17.4
//
molecule: COCCN1CCC[C@H]1COc1ccc(CN2C(=O)C(C(=O)Nc3ccc(C(F)(F)F)cc3-c3cc(C(F)(F)F)ncn3)=C(O)C3(CCC3)N2C)c(F)c1F [Example 404]
readout-value: 10.1
//
molecule: COCCN(C)CCOc1c(I)cc(CN2C(=O)C(C(=O)Nc3ccc(C(F)(F)F)cc3-c3cc(C(F)(F)F)ncn3)=C(O)C3(CCCC3)N2C)c(F)c1F [Example 437]
readout-value: 19.5
//
molecule: CC(CN1CCOCC1)Oc1ccc(CN2C(=O)C(C(=O)Nc3ccc(C(F)(F)F)cc3-c3cc(C(F)(F)F)ncn3)=C(O)C3(CCC3)N2C)c(F)c1F (stereo not shown) [Example 408]
readout-value: 14.6
//
molecule: CN1N(Cc2ccc(OCCNC(CC(=O)O)CC(=O)O)c(F)c2F)C(=O)C(C(=O)Nc2ccc(C(F)(F)F)cc2-c2cc(C(F)(F)F)ncn2)=C(O)C12CCCC2 [Example 382]
readout-value: 21
//
molecule: CN1N(Cc2ccc(OCCNCCS(=O)(=O)O)c(F)c2F)C(=O)C(C(=O)Nc2ccc(C(F)(F)F)cc2-c2cc(C(F)(F)F)ncn2)=C(O)C12CCCC2 [Example 435]
readout-value: 17.1
//
molecule: CN1N(Cc2ccc(OCCCCCOC[C@H](O)CO)c(F)c2F)C(=O)C(C(=O)Nc2ccc(C(F)(F)F)cc2-c2ccc(C(F)(F)F)nc2)=C(O)C12CCC2 [Example 385]
readout-value: 6.2
